Cited source for all entries: paper PMC6572064

# Tested on: MDA-MB-436 (a BRCA-1-mutated breast cancer cell line)
# protocol summary: Cell proliferation assay, three-day, CellTiter-Glo, MDA-MB-436
# Format: cell-based
# experimental setup: MDA-MB-436; curve fit parameter (Inh %); '= 100.0' is a constrained value
experimental readout: Top
Simply state the number, no unit and no words.

NC(=O)c1cccc2[nH]c(C3CCN(CCC(=O)c4ccc(Cl)cc4)C3)nc12 (centres unmarked) [Compound 5cj] ... 99.53
NC(=O)c1cccc2[nH]c(C3CCN(CC(=O)Nc4ccccc4)C3)nc12 (centres unmarked) [Compound 5ca] ... 92.23
NC(=O)c1cccc2[nH]c(C3CCN(CCCC(=O)c4ccccc4)C3)nc12 (centres unmarked) [Compound 5cc] ... 100
COc1ccc(C(=O)CCN2CCC(c3nc4c(C(N)=O)cccc4[nH]3)C2)cc1 (centres unmarked) [Compound 5ci] ... 88

Now, please, on to the next compound.
Input line: Lab note: need Top with MDA-MB-436 (a BRCA-1-mutated breast cancer cell line) for entry NC(=O)c1cccc2[nH]c(C3CCN(CC(O)c4ccccc4)C3)nc12 (centres unmarked) [Compound 5cf] , please look it up.
Output line: 104.3
